TEST_NAME: Aqueous solubility of compound in PBS at 1 mg after 18 hrs by UV based analysis
Format: physicochemical
READOUT_KIND: solubility thermodynamic at 18 h (µg/mL)

Example results:
[
  {
    "MOLECULAR_STRING": "O=C(CCN1CCOCC1)Nc1ccc2c(-c3cc(F)ccc3O)ccnc2c1O",
    "solubility thermodynamic at 18 h [µg/mL]": 1520
  },
  {
    "MOLECULAR_STRING": "CC(=O)Nc1ccc2c(-c3cc4ccccc4o3)ccnc2c1O",
    "solubility thermodynamic at 18 h [µg/mL]": 28
  },
  {
    "MOLECULAR_STRING": "O=C(CCN1CCOCC1)Nc1ccc2c(-c3cc4ccccc4o3)ccnc2c1O",
    "solubility thermodynamic at 18 h [µg/mL]": 1160
  }
]

(P) O=C(CN1CCOCC1)Nc1ccc2c(-c3cc4ccccc4o3)ccnc2c1O
(Q) CC(=O)Nc1ccc2c(-c3cc(F)ccc3O)ccnc2c1O
[in] I would appreciate it if you could say which entry, P or Q , has the lower solubility thermodynamic at 18 h value. Provide the label of your selected option as the answer.
[out] P
